# credit: patent US5462926A

[3H]IP, analog Plus NMB (3 nM) reference
# TARGET_DESC: NMB receptor (Rattus norvegicus)
# PROTOCOL: [3H]inositol phosphates in NMB-R transfected cells (alone or NMB-stimulated)
# Type: cell-based
# Set-up: a full length NMB-preferring bombesin receptor clone generated from rat esophagus; expressed in transfected cells
# RUN_PARAMETERS: NMB-R transfected cells; analog 10 μM plus NMB 3 nM; NMB without analog 186 ± 58
Where a SMILES comes first, the peptide text is derived from it. Bridges are numbered along the chain shown (N, C = ends). [ ]: non-standard residue; d: D form. 2Nal = N[C@@H](Cc1ccc2ccccc2c1)C(=O)O; d2Nal = N[C@H](Cc1ccc2ccccc2c1)C(=O)O; Lys(Et2) = CCN(CC)CCCC[C@H](N)C(=O)O; Lys(iPr) = CC(C)NCCCC[C@H](N)C(=O)O
Field note: include the unit after the figure.

Consider the molecule CCN(CC)CCCC[C@@H]1NC(=O)[C@@H](Cc2c[nH]c3ccccc23)NC(=O)[C@H](Cc2ccc(O)cc2)NC(=O)[C@@H](NC(=O)[C@H](N)Cc2ccccc2)CSSC[C@@H](C(=O)N[C@@H](Cc2ccc3ccccc3c2)C(N)=O)NC(=O)[C@H]([C@@H](C)O)NC1=O [Analog #16] (H-[dF]CY[dW][Lys(Et2)]TC[2Nal]-NH2; disulfide 2-7) . State its measured [3H]IP, analog Plus NMB (3 nM).
73 ± 15 dym × 10^3

Consider the molecule CC(C)[C@@H]1NC(=O)[C@H](CCCCN)NC(=O)[C@@H](Cc2ccc3ccccc3c2)NC(=O)[C@H](Cc2ccc(O)cc2)NC(=O)[C@@H](NC(=O)[C@H](N)Cc2ccc3ccccc3c2)CSSC[C@@H](C(=O)N[C@@H](Cc2ccc3ccccc3c2)C(N)=O)NC1=O [Analog #17] (H-[d2Nal]CY[d2Nal]KVC[2Nal]-NH2; disulfide 2-7) . State its measured [3H]IP, analog Plus NMB (3 nM).
15 ± 2 dym × 10^3

Consider the molecule CC(C)NCCCC[C@@H]1NC(=O)[C@@H](Cc2c[nH]c3ccccc23)NC(=O)[C@H](Cc2ccc(O)cc2)NC(=O)[C@@H](NC(=O)[C@H](N)Cc2ccccc2)CSSC[C@@H](C(=O)N[C@@H](Cc2ccc3ccccc3c2)C(N)=O)NC(=O)[C@H]([C@@H](C)O)NC1=O [Analog #15] (H-[dF]CY[dW][Lys(iPr)]TC[2Nal]-NH2; disulfide 2-7) . State its measured [3H]IP, analog Plus NMB (3 nM).
67 ± 7 dym × 10^3

Consider the molecule CC(C)[C@@H]1NC(=O)[C@H](CCCCN)NC(=O)[C@@H](Cc2c[nH]c3ccccc23)NC(=O)[C@H](Cc2ccc(O)cc2)NC(=O)[C@@H](NC(=O)[C@H](N)Cc2ccc3ccccc3c2)CSSC[C@@H](C(=O)N[C@@H](Cc2ccc3ccccc3c2)C(N)=O)NC1=O [Analog #1] (H-[d2Nal]CY[dW]KVC[2Nal]-NH2; disulfide 2-7) . State its measured [3H]IP, analog Plus NMB (3 nM).
8 ± 4 dym × 10^3

Consider the molecule `C[C@@H](O)[C@H](NC(=O)[C@@H]1CSSC[C@H](NC(=O)[C@H](N)Cc2ccc3ccccc3c2)C(=O)N[C@@H](Cc2ccc(O)cc2)C(=O)N[C@H](Cc2c[nH]c3ccccc23)C(=O)N[C@@H](CCCCN)C(=O)N[C@@H](Cc2ccc3ccccc3c2)C(=O)N1)C(N)=O` . State its measured [3H]IP, analog Plus NMB (3 nM).
39 ± 7 dym × 10^3

Consider the molecule CC(C)[C@@H]1NC(=O)[C@H](CCCCN)NC(=O)[C@@H](Cc2c[nH]c3ccccc23)NC(=O)[C@H](Cc2ccc(O)cc2)NC(=O)[C@@H](NC(=O)[C@@H](N)Cc2ccc3ccccc3c2)CSSC[C@@H](C(=O)N[C@H](Cc2ccc3ccccc3c2)C(N)=O)NC1=O [Analog #9] (H-[2Nal]CY[dW]KVC[d2Nal]-NH2; disulfide 2-7) . State its measured [3H]IP, analog Plus NMB (3 nM).
28 ± 6 dym × 10^3

---

pIC50 reference
# TARGET_DESC: NMB receptor (Rattus norvegicus, UniProt P24053)
# PROTOCOL: [3H]inositol phosphates in NMB-R transfected cells (alone or NMB-stimulated)
# Type: cell-based
# Parameters: a full length NMB-preferring bombesin receptor clone generated from rat esophagus; expressed in transfected cells
# RUN_PARAMETERS: NMB-R transfected cells; 3 nM NMB; read-out: IC50 NMB-stimulated [3H]IP, NMB Receptor, Transfected Cells
Where a SMILES comes first, the peptide text is derived from it. Bridges are numbered along the chain shown (N, C = ends). [ ]: non-standard residue; d: D form. 2Nal = N[C@@H](Cc1ccc2ccccc2c1)C(=O)O; d2Nal = N[C@H](Cc1ccc2ccccc2c1)C(=O)O; Lys(iPr) = CC(C)NCCCC[C@H](N)C(=O)O
Quick note: pIC50 means taking -log10 of the concentration in moles per liter.

Some solved cases for reference:
compound="CC(C)NCCCC[C@@H]1NC(=O)[C@@H](Cc2c[nH]c3ccccc23)NC(=O)[C@H](Cc2ccc(O)cc2)NC(=O)[C@@H](NC(=O)[C@H](N)Cc2ccccc2)CSSC[C@@H](C(=O)N[C@@H](Cc2ccc3ccccc3c2)C(N)=O)NC(=O)[C@H]([C@@H](C)O)NC1=O [Analog #15] (H-[dF]CY[dW][Lys(iPr)]TC[2Nal]-NH2; disulfide 2-7)" target_desc="NMB receptor (Rattus norvegicus, UniProt P24053)" recorded_measurement=5.00
compound="CC(C)[C@@H]1NC(=O)[C@H](CCCCN)NC(=O)[C@@H](Cc2c[nH]c3ccccc23)NC(=O)[C@H](Cc2ccc(O)cc2)NC(=O)[C@@H](NC(=O)[C@H](N)Cc2ccc3ccccc3c2)CSSC[C@@H](C(=O)N[C@@H](Cc2ccc3ccccc3c2)C(N)=O)NC1=O [Analog #1] (H-[d2Nal]CY[dW]KVC[2Nal]-NH2; disulfide 2-7)" target_desc="NMB receptor (Rattus norvegicus, UniProt P24053)" recorded_measurement=6.05

Here is the next item to consider.
Consider the compound CC(C)[C@@H]1NC(=O)[C@H](Cc2c[nH]cn2)NC(=O)[C@@H](Cc2c[nH]c3ccccc23)NC(=O)[C@H](Cc2ccc(O)cc2)NC(=O)[C@@H](NC(=O)[C@H](N)Cc2ccc3ccccc3c2)CSSC[C@@H](C(=O)N[C@@H](Cc2ccc3ccccc3c2)C(N)=O)NC1=O [Analog #14] (H-[d2Nal]CY[dW]HVC[2Nal]-NH2; disulfide 2-7; N-terminus assumed) . State its measured pIC50.
4.93

---

# TARGET_DESC: NMB receptor (Rattus norvegicus, UniProt P24053)
# Sequence (P24053 1-390): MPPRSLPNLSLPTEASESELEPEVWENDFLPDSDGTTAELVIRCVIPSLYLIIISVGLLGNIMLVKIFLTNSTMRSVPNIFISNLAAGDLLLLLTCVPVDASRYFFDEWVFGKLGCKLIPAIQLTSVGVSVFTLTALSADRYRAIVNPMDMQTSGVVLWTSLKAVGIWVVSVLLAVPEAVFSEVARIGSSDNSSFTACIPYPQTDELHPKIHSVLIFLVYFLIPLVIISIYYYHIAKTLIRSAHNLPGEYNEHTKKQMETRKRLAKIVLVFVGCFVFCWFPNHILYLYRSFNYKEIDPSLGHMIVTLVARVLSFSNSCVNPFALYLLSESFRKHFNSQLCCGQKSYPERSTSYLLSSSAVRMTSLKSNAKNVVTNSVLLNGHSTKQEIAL
# PROTOCOL: [3H]inositol phosphates in NMB-R transfected cells (alone or NMB-stimulated)
# Type: cell-based
# Set-up: a full length NMB-preferring bombesin receptor clone generated from rat esophagus; expressed in transfected cells
# RUN_PARAMETERS: NMB-R transfected cells; 3 nM NMB; read-out: IC50 NMB-stimulated [3H]IP, NMB Receptor, Transfected Cells
Where a SMILES comes first, the peptide text is derived from it. Bridges are numbered along the chain shown (N, C = ends). [ ]: non-standard residue; d: D form. 2Nal = N[C@@H](Cc1ccc2ccccc2c1)C(=O)O; d2Nal = N[C@H](Cc1ccc2ccccc2c1)C(=O)O; Lys(Et2) = CCN(CC)CCCC[C@H](N)C(=O)O
IC50 reference
Please state the figure in µM; there is no need to write the unit.

Some solved cases for reference:
compound=C[C@@H](O)[C@H](NC(=O)[C@@H]1CSSC[C@H](NC(=O)[C@H](N)Cc2ccc3ccccc3c2)C(=O)N[C@@H](Cc2ccc(O)cc2)C(=O)N[C@H](Cc2c[nH]c3ccccc23)C(=O)N[C@@H](CCCCN)C(=O)N[C@@H](Cc2ccc3ccccc3c2)C(=O)N1)C(N)=O value_type=IC50 unit_spec=µM recorded_measurement=6.67
compound="CCN(CC)CCCC[C@@H]1NC(=O)[C@@H](Cc2c[nH]c3ccccc23)NC(=O)[C@H](Cc2ccc(O)cc2)NC(=O)[C@@H](NC(=O)[C@H](N)Cc2ccccc2)CSSC[C@@H](C(=O)N[C@@H](Cc2ccc3ccccc3c2)C(N)=O)NC(=O)[C@H]([C@@H](C)O)NC1=O [Analog #16] (H-[dF]CY[dW][Lys(Et2)]TC[2Nal]-NH2; disulfide 2-7)" value_type=IC50 unit_spec=µM recorded_measurement=7.21

Here is the next item to consider.
Consider the compound CC(C)[C@@H]1NC(=O)[C@H](CCCCN)NC(=O)[C@@H](Cc2c[nH]c3ccccc23)NC(=O)[C@H](Cc2ccc(O)cc2)NC(=O)[C@@H](NC(=O)[C@H](N)Cc2ccc3ccccc3c2)CSSC[C@@H](C(=O)N[C@H](Cc2ccc3ccccc3c2)C(N)=O)NC1=O [Analog #8] (H-[d2Nal]CY[dW]KVC[d2Nal]-NH2; disulfide 2-7) . State its measured IC50.
5.19
